# Experimental details: Cytotoxicity against human macrophages assessed as drug level causing microscopically detectable alteration in normal cell morphology after 24 hrs by MTT assay
# Type: cell-based, Macrophage
So basically: is CC50 at 24 h under 500 µg/mL? Then Fulfilled. Not under? Then Not fulfilled.

Compound structure	Label class
Cc1ncc([N+](=O)[O-])n1CCOc1cccc(/C=N/Nc2nc(-c3ccc(C(F)(F)F)cc3)cs2)c1	Not fulfilled
Cc1ncc([N+](=O)[O-])n1CCOc1ccc(/C=N/Nc2nc(-c3ccccc3)cs2)cc1	Fulfilled
Cc1ncc([N+](=O)[O-])n1CCOc1ccc(/C=N/Nc2nc(-c3ccc(C(F)(F)F)cc3)cs2)cc1	Fulfilled
Cc1ncc([N+](=O)[O-])n1CCOc1ccc(/C=N/Nc2nc(-c3ccccc3Br)cs2)cc1	Fulfilled
COc1ccc(-c2csc(N/N=C/c3cccc(OCCn4c([N+](=O)[O-])cnc4C)c3)n2)cc1	Fulfilled
COc1ccc(-c2csc(N/N=C/c3ccc(OCCn4c([N+](=O)[O-])cnc4C)cc3)n2)cc1	Fulfilled
